The reported measurements were obtained from ChEMBL document CHEMBL2321649.

Please provide measured IC50 for the entries that follow.
System: B16
Test: Cytotoxicity against mouse B16 cells after 48 hrs by MTT assay
Assay type: functional, cell-based
Conditions: B16, 48 h
Report as a plain number; the unit nM is understood.

Q. Hello, please tell me recorded IC50 for this one: COc1ccc(C2CC2c2cc(OC)c(OC)c(OC)c2)cc1O (racemic)
A. 320

Q. Hello, please tell me recorded IC50 for this one: COc1ccc([C@H]2C[C@H]2c2cc(OC)c(OC)c(OC)c2)cc1O
A. 520

Q. Hello, please tell me recorded IC50 for this one: COc1ccc(/C=C\c2cc(OC)c(OC)c(OC)c2)cc1O
A. 3

Q. Hello, please tell me recorded IC50 for this one: COc1cc([C@H]2C[C@H]2/C=C/c2ccccc2)cc(OC)c1OC
A. 2740
